Molecular target: Sphingosine 1-phosphate receptor 1 (Homo sapiens, UniProt P21453)
Sequence (P21453 whole entry): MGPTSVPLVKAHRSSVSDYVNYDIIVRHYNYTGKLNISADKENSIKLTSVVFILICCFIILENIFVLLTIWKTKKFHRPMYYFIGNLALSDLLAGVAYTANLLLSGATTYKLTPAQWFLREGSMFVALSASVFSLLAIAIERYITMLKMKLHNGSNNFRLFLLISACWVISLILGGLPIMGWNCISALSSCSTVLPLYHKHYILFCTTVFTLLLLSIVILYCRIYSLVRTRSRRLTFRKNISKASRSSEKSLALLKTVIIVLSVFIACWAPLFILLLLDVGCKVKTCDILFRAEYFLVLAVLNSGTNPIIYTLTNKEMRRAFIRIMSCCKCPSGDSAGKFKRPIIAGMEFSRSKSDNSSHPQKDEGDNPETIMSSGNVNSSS
Test: Agonist activity at S1P1 (unknown origin) expressed in human HEK293/Galpha15 cells assessed as Ca2+ activation at 1 uM measured for 2 hrs by FLIPR analysis relative to control
Format: functional, cell-based
Lab note: compare Activity against 9%. Equal or greater, write YES. Smaller, write NO.

Field: example entries. Status: answers known.
CC(C)Oc1ccc(COc2cccc3c2CCN(CCC(=O)O)C3)cc1C#N    NO
CC(C)Oc1ccc(COc2ccc3c(c2)CCN(C(=O)CCCNS(C)(=O)=O)C3)cc1C#N    NO
CNC(=O)CCC(=O)N1CCc2cc(OCc3ccc(OC(C)C)c(C#N)c3)ccc2C1    YES
CC(C)Oc1ccc(COc2ccc3c(c2)CCN(C(C)C(=O)O)C3)cc1C#N (centres undefined)    YES
CC(C)Oc1ccc(CN(C)c2ccc3c(c2)CCN(S(=O)(=O)CCC(=O)O)C3)cc1C#N    NO

Query: Assess whether reported Activity for CC(C)Oc1ccc(COc2ccc3c(c2)CCN(S(=O)(=O)CC(=O)O)C3C)cc1C#N (centres undefined) sits at 9% or higher.
Response: YES

Query: Assess whether reported Activity for CC(C)Oc1ccc(COc2ccc3c(c2)OCCN(CCC(=O)O)C3)cc1C#N sits at 9% or higher.
Response: YES
